B1: POU domain, class 4, transcription factor 1, residues 266 to 347; numbered along this chain, Q01851 (parent)
chain: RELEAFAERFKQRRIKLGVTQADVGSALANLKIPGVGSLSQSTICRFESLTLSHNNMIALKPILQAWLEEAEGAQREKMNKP

variants of: B1; assay: abundance fitness (aPCA) (normalised: wild type 0, dead -1); higher = more abundant; growth selection in yeast, the domain comes from the species named; conditions: Homo sapiens
Experimental Endpoint: abundance fitness
Output spec: single numeric token, no unit.

Name the recorded abundance fitness of the variant listed here: `Q75P`
-0.063

Name the recorded abundance fitness of the variant listed here: `Q21C`
-0.083

Name the recorded abundance fitness of the variant listed here: `I33E`
-0.22

Name the recorded abundance fitness of the variant listed here: `M79W`
-0.015

Name the recorded abundance fitness of the variant listed here: `L3W`
-0.352

Name the recorded abundance fitness of the variant listed here: `Q12L`
-0.078

Name the recorded abundance fitness of the variant listed here: `L68H`
-0.329

Name the recorded abundance fitness of the variant listed here: `L3M`
-0.029

Name the recorded abundance fitness of the variant listed here: `P34Y`
-0.387

Name the recorded abundance fitness of the variant listed here: `G35W`
-0.326

Name the recorded abundance fitness of the variant listed here: `P62I`
-0.816

Name the recorded abundance fitness of the variant listed here: `L31T`
0.051

Name the recorded abundance fitness of the variant listed here: `I63K`
-0.137

Name the recorded abundance fitness of the variant listed here: `T20S`
-0.117

Name the recorded abundance fitness of the variant listed here: `L50Y`
0.008

Name the recorded abundance fitness of the variant listed here: `L28E`
-0.782

Name the recorded abundance fitness of the variant listed here: `S38H`
0.047

Name the recorded abundance fitness of the variant listed here: `E8G`
-0.048

Name the recorded abundance fitness of the variant listed here: `R14H`
-1.16

Name the recorded abundance fitness of the variant listed here: `E2M`
-0.17
